// reported CC50 at 48 h for each item listed
# experiment_notes: Cytotoxicity assay on splenocytes, propidium iodide flow cytometry
# Format: cell-based, mice
# condition_parameters: BALB/c, mouse, primary splenocytes, murine splenocytes, read-out: CC50

{"compound": "C=C1C(=O)[C@@]23CC[C@@H]4[C@](C)(C(=O)O)CCC[C@@]4(C)[C@]2(O)[C@@H](O)C[C@@H]1C3 (single isomer, unassigned; ent-9)", "CC50 at 48 h [µM]": 322}
{"compound": "C[C@H]1C(=O)[C@@]23CC[C@H]4[C@@](C)(CCC[C@@]4(C)C(=O)O)[C@@H]2[C@@H](O)C[C@@H]1C3", "CC50 at 48 h [µM]": 23.3}
{"compound": "O=C(Cn1ccnc1[N+](=O)[O-])NCc1ccccc1 [Benznidazole, benznidazole, reference compound]", "CC50 at 48 h [µM]": 81.5}

Reference for the values: paper PMC10975076
